FYI, the data here is from the supplement of paper PMC11061612.

test system: TC-YIK (Other Solid Carcinomas); assay: combination Emax (second highest fraction inhibited in the dose matrix, 72 h); higher = more inhibition; extreme values may be limits of the assay

[
  {
    "MOLECULE": "Cn1cnc2c(F)c(Nc3ccc(Br)cc3Cl)c(C(=O)NOCCO)cc21 [Selumetinib] + C[C@@H]1COCCN1C2=NC(=NC(=C2)C3(CC3)[S@](=N)(=O)C)C4=C5C=CNC5=NC=C4 [AZD6738] (first compound max 10 µM, 7x7, partner max 10 µM)",
    "ASSAY_SYSTEM": "TC-YIK (Other Solid Carcinomas)",
    "combination Emax": 0.865
  },
  {
    "MOLECULE": "NC1(C(=O)N[C@@H](CCO)c2ccc(Cl)cc2)CCN(c2ncnc3[nH]ccc23)CC1 [Capivasertib] + CC(=O)c1c(C)c2cnc(Nc3ccc(N4CCNCC4)cn3)nc2n(C2CCCC2)c1=O [Palbociclib] (first compound max 10 µM, 7x7, partner max 10 µM)",
    "ASSAY_SYSTEM": "TC-YIK (Other Solid Carcinomas)",
    "combination Emax": 0.44
  },
  {
    "MOLECULE": "C[C@@H](Nc1cc(F)cc(F)c1)c1cc(C(=O)N(C)C)cc2c(=O)cc(N3CCOCC3)oc12 [AZD8186] + C1CN(CCC1(C(=O)N[C@@H](CCO)C2=CC=C(C=C2)Cl)N)C3=NC=NC4=C3C=CN4 [AZD5363] (first compound max 10 µM, 7x7, partner max 10 µM)",
    "ASSAY_SYSTEM": "TC-YIK (Other Solid Carcinomas)",
    "combination Emax": 0.294
  },
  {
    "MOLECULE": "N#Cc1cnc(Nc2cc(NC[C@H]3CNCCO3)c(C(F)(F)F)cn2)cn1 [SRA737] + C=CCn1c(=O)c2cnc(Nc3ccc(N4CCN(C)CC4)cc3)nc2n1-c1cccc(C(C)(C)O)n1 [AZD1775] (first compound max 10 µM, partner max 1 µM)",
    "ASSAY_SYSTEM": "TC-YIK (Other Solid Carcinomas)",
    "combination Emax": 0.858
  },
  {
    "MOLECULE": "Cc1c2c(nn1C)CSCc1cc(n(C)n1)CSc1cc(c3ccccc3c1)OCCCc1c(C(=O)O)n(C)c3c-2c(Cl)ccc13 [AZD5991] + CC(=O)O[C@H]1C(=O)[C@@]2(C)[C@H]([C@H](OC(=O)c3ccccc3)[C@]3(O)C[C@H](OC(=O)[C@H](O)[C@@H](NC(=O)c4ccccc4)c4ccccc4)C(C)=C1C3(C)C)[C@]1(OC(C)=O)CO[C@@H]1C[C@@H]2O [Paclitaxel] (first compound max 1 µM, 7x7, partner max 3 µM)",
    "ASSAY_SYSTEM": "TC-YIK (Other Solid Carcinomas)",
    "combination Emax": 0.928
  },
  {
    "MOLECULE": "C[C@@H](Oc1cc(-c2cnn(C3CCNCC3)c2)cnc1N)c1c(Cl)ccc(F)c1Cl [Crizotinib] + Cn1cnc2c(F)c(Nc3ccc(Br)cc3Cl)c(C(=O)NOCCO)cc21 [Selumetinib] (first compound max 10 µM, 7x7, partner max 10 µM)",
    "ASSAY_SYSTEM": "TC-YIK (Other Solid Carcinomas)",
    "combination Emax": 0.858
  },
  {
    "MOLECULE": "Cc1c2c(nn1C)CSCc1cc(n(C)n1)CSc1cc(c3ccccc3c1)OCCCc1c(C(=O)O)n(C)c3c-2c(Cl)ccc13 [AZD5991] + CS(=O)(=O)CCNCc1ccc(-c2ccc3ncnc(Nc4ccc(OCc5cccc(F)c5)c(Cl)c4)c3c2)o1 [Lapatinib] (first compound max 1 µM, 7x7, partner max 10 µM)",
    "ASSAY_SYSTEM": "TC-YIK (Other Solid Carcinomas)",
    "combination Emax": 0.26
  }
]

* * *

tested on: HLE (Hepatocellular Carcinoma); experiment: Bliss excess, mean over the matrix (fraction); higher = more synergy;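 further: after 72 h of two-drug dosing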
Measured Bliss excess values are reported for all entries that follow.

[
  {
    "MOLECULE": "COc1nnc2ccc(N3CCC(c4ccc(OCCN5CCN(C)C(=O)[C@H]5C)cc4)CC3)nn12 [AZD5153] + CCN(CCO)CCCOc1ccc2c(Nc3cc(CC(=O)Nc4cccc(F)c4)[nH]n3)ncnc2c1 [AZD2811] (first compound max 1 µM, 7x7, partner max 1 µM)",
    "ASSAY_SYSTEM": "HLE (Hepatocellular Carcinoma)",
    "Bliss excess": -0.0177
  },
  {
    "MOLECULE": "CS(=O)(=O)CCNCc1ccc(-c2ccc3ncnc(Nc4ccc(OCc5cccc(F)c5)c(Cl)c4)c3c2)o1 [Lapatinib] + C[C@@H](Oc1cc(-c2cnn(C3CCNCC3)c2)cnc1N)c1c(Cl)ccc(F)c1Cl [Crizotinib] (first compound max 10 µM, 7x7, partner max 10 µM)",
    "ASSAY_SYSTEM": "HLE (Hepatocellular Carcinoma)",
    "Bliss excess": -0.072
  },
  {
    "MOLECULE": "CC1(C)CCC(CN2CCN(c3ccc(C(=O)NS(=O)(=O)c4ccc(NCC5CCOCC5)c([N+](=O)[O-])c4)c(Oc4cnc5[nH]ccc5c4)c3)CC2)=C(c2ccc(Cl)cc2)C1 [Venetoclax] + CCN(CCO)CCCOc1ccc2c(Nc3cc(CC(=O)Nc4cccc(F)c4)[nH]n3)ncnc2c1 [AZD2811] (first compound max 1 µM, 7x7, partner max 1 µM)",
    "ASSAY_SYSTEM": "HLE (Hepatocellular Carcinoma)",
    "Bliss excess": 0.005
  },
  {
    "MOLECULE": "CC1(C)CCC(CN2CCN(c3ccc(C(=O)NS(=O)(=O)c4ccc(NCC5CCOCC5)c([N+](=O)[O-])c4)c(Oc4cnc5[nH]ccc5c4)c3)CC2)=C(c2ccc(Cl)cc2)C1 [Venetoclax] + COc1cc(Nc2ncc3c(n2)-c2ccc(Cl)cc2C(c2c(F)cccc2OC)=NC3)ccc1C(=O)O [Alisertib] (first compound max 1 µM, 7x7, partner max 10 µM)",
    "ASSAY_SYSTEM": "HLE (Hepatocellular Carcinoma)",
    "Bliss excess": 0.0066
  },
  {
    "MOLECULE": "Cc1c2c(nn1C)CSCc1cc(n(C)n1)CSc1cc(c3ccccc3c1)OCCCc1c(C(=O)O)n(C)c3c-2c(Cl)ccc13 [AZD5991] + Cc1cc2ncnn2cc1Nc1ncc2c(n1)n(C1CCOCC1)c(=O)n2C [AZD7648] (first compound max 1 µM, 7x7, partner max 10 µM)",
    "ASSAY_SYSTEM": "HLE (Hepatocellular Carcinoma)",
    "Bliss excess": -0.0253
  },
  {
    "MOLECULE": "Cc1c2c(nn1C)CSCc1cc(n(C)n1)CSc1cc(c3ccccc3c1)OCCCc1c(C(=O)O)n(C)c3c-2c(Cl)ccc13 [AZD5991] + CN(C)CCCOc1ccc(-c2ccc3ncc4c(c3c2)n(C2CCOCC2)c(=O)n4C)cn1 [AZD0156] (first compound max 1 µM, 7x7, partner max 1 µM)",
    "ASSAY_SYSTEM": "HLE (Hepatocellular Carcinoma)",
    "Bliss excess": 0.0424
  },
  {
    "MOLECULE": "C=CCn1c(=O)c2cnc(Nc3ccc(N4CCN(C)CC4)cc3)nc2n1-c1cccc(C(C)(C)O)n1 [AZD1775] + C[C@@H]1COCCN1C2=NC(=NC(=C2)C3(CC3)[S@](=N)(=O)C)C4=C5C=CNC5=NC=C4 [AZD6738] (first compound max 1 µM, partner max 10 µM)",
    "ASSAY_SYSTEM": "HLE (Hepatocellular Carcinoma)",
    "Bliss excess": -0.0148
  }
]

* * *

system: SNU-61 (Colorectal Carcinoma); experiment: combination Emax (second highest fraction inhibited in the dose matrix, 72 h); higher = more inhibition; extreme values may be limits of the assay
Reported combination Emax values for the following molecules.
QUANTITY_MEASURED: combination Emax

[
  {
    "MOLECULE": "CC1(C)CCC(CN2CCN(c3ccc(C(=O)NS(=O)(=O)c4ccc(NCC5CCOCC5)c([N+](=O)[O-])c4)c(Oc4cnc5[nH]ccc5c4)c3)CC2)=C(c2ccc(Cl)cc2)C1 [Venetoclax] + CN(C)CCCOc1ccc(-c2ccc3ncc4c(c3c2)n(C2CCOCC2)c(=O)n4C)cn1 [AZD0156] (first compound max 1 µM, 7x7, partner max 1 µM)",
    "QUANTITY_MEASURED": "combination Emax",
    "RESULT_NUMBER": 0.182
  },
  {
    "MOLECULE": "CC(=O)c1c(C)c2cnc(Nc3ccc(N4CCNCC4)cn3)nc2n(C2CCCC2)c1=O [Palbociclib] + Cc1c2c(nn1C)CSCc1cc(n(C)n1)CSc1cc(c3ccccc3c1)OCCCc1c(C(=O)O)n(C)c3c-2c(Cl)ccc13 [AZD5991] (first compound max 10 µM, 7x7, partner max 1 µM)",
    "QUANTITY_MEASURED": "combination Emax",
    "RESULT_NUMBER": 0.171
  },
  {
    "MOLECULE": "Cn1cnc2c(F)c(Nc3ccc(Br)cc3Cl)c(C(=O)NOCCO)cc21 [Selumetinib] + CCN(CCO)CCCOc1ccc2c(Nc3cc(CC(=O)Nc4cccc(F)c4)[nH]n3)ncnc2c1 [AZD2811] (first compound max 10 µM, 7x7, partner max 1 µM)",
    "QUANTITY_MEASURED": "combination Emax",
    "RESULT_NUMBER": 0.486
  },
  {
    "MOLECULE": "COc1cccc(OCCCN)c1-c1cc(Nc2cnc(C#N)cn2)n[nH]1 [Prexasertib] + Cc1cc2ncnn2cc1Nc1ncc2c(n1)n(C1CCOCC1)c(=O)n2C [AZD7648] (first compound max 1 µM, 7x7, partner max 10 µM)",
    "QUANTITY_MEASURED": "combination Emax",
    "RESULT_NUMBER": 0.466
  },
  {
    "MOLECULE": "Cc1c2c(nn1C)CSCc1cc(n(C)n1)CSc1cc(c3ccccc3c1)OCCCc1c(C(=O)O)n(C)c3c-2c(Cl)ccc13 [AZD5991] + C=CCn1c(=O)c2cnc(Nc3ccc(N4CCN(C)CC4)cc3)nc2n1-c1cccc(C(C)(C)O)n1 [AZD1775] (first compound max 1 µM, partner max 1 µM)",
    "QUANTITY_MEASURED": "combination Emax",
    "RESULT_NUMBER": 0.49
  },
  {
    "MOLECULE": "CN(C)CCCOc1ccc(-c2ccc3ncc4c(c3c2)n(C2CCOCC2)c(=O)n4C)cn1 [AZD0156] + CCN(CCO)CCCOc1ccc2c(Nc3cc(CC(=O)Nc4cccc(F)c4)[nH]n3)ncnc2c1 [AZD2811] (first compound max 1 µM, 7x7, partner max 1 µM)",
    "QUANTITY_MEASURED": "combination Emax",
    "RESULT_NUMBER": 0.0613
  },
  {
    "MOLECULE": "COc1nnc2ccc(N3CCC(c4ccc(OCCN5CCN(C)C(=O)[C@H]5C)cc4)CC3)nn12 [AZD5153] + Cc1c2c(nn1C)CSCc1cc(n(C)n1)CSc1cc(c3ccccc3c1)OCCCc1c(C(=O)O)n(C)c3c-2c(Cl)ccc13 [AZD5991] (first compound max 1 µM, 7x7, partner max 1 µM)",
    "QUANTITY_MEASURED": "combination Emax",
    "RESULT_NUMBER": 0.452
  }
]
